# Assayed System: T1, Anti-PSMA Fab (SEQ ID NOs: 19, 20)
# T1 construct: Biotinylated and captured on neutravidin coated plates in the phage ELISA; also called 006 PSMA Fab
# Procedure Details: phage binding ELISA; biotinylated PSMA Fab on neutravidin plate, bound phage detected with anti-M13-HRP
Where no end group is shown, it is not given here.
Entries and their Anti-PSMA Fab (SEQ ID NOs: 19, 20) signal values follow.
Note: the reply should be a number with no unit written.

SLNWCIPEWMCEGF [Phage-2035]	1.8
VHKWCIPSWMCEAP [Phage-2040]	1.79
QMKWCTPEWMCVGM [Phage-2041]	1.79
MERWCKPAWMCADM (cysteine pairing not given here; also: fused to phage pIII, pIII sequence and linker not given here) [Phage-2038]	1.8
WPMLCIPEWMCDGL [Phage-2033]	1.8
EGKWCIPPWMCERN [Phage-2029]	1.81

Lab note: measured Anti-PSMA Fab (SEQ ID NOs: 19, 20) signal of DIKWCIPPWMCQVE [Phage-2032] was 1.81

Lab note: measured Anti-PSMA Fab (SEQ ID NOs: 19, 20) signal of FEKWCIPSWMCENA [Phage-2030] was 1.81
